B1: H2-Kb / F5 (parent)
chain 1: GDSVTQTEGLVTLTEGLPVMLNCTYQSTYSPFLFWYVQHLNEAPKLLLKSFTDNKRPEHQGFHATLHKSSSSFHLQKSSAQLSDSALYYCALSPSNMGYKLTFGTGTSLLVDP
chain 2: EAAVTQSPRNKVAVTGGKVTLSCNQTNNHNNMYWYRQDTGHGLRLIHYSYGAGSTEKGDIPDGYKASRPSQENFSLILELATPSQTSVYFCASGDASEQYFGPGTRLTVL
chain 3: not shown
chain 4: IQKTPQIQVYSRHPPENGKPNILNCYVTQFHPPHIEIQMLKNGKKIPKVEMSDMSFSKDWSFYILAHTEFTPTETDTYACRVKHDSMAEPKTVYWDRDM
chain 5: SIINFEKL

variants of: B1; test: % of reporter cells activated (NFAT-GFP), raw; details: with F5; scale: % of reporter cells activated; also: test concentration or dose not given here
Entries get a class label from measured ratio to parent. See ranges: lower band = under 0.3, central band = from 0.3 up to 0.5, upper band = 0.5 and over

chain 5 N4R    lower band
chain 5 L8S    upper band
chain 5 S1F    lower band
chain 5 S1H    central band
chain 5 S1A    upper band

In: Field: class (ratio to parent) — entry: chain 5 L8F
Out: lower band

In: Assign a bin to chain 5 F5D
Out: lower band

In: Looking at chain 5 I3D , which class would you pick?
Out: lower band

In: State the band of chain 5 I3S
Out: central band

In: Which ratio to parent band matches chain 5 I2K ?
Out: central band

In: The entry to classify is chain 5 I2G ; which class holds it?
Out: upper band

In: Just checking, what class would you give chain 5 N4K here?
Out: lower band

In: Band for the recorded ratio to parent of chain 5 I3M ?
Out: lower band

In: Lab log: chain 5 F5K — assign ratio to parent category
Out: lower band

In: Form: Item = chain 5 L8Q ; Class = ?
Out: lower band

In: Field: class (ratio to parent) — entry: chain 5 I3L
Out: upper band

In: Form: Item = chain 5 I2N ; Class = ?
Out: upper band

In: Band of chain 5 N4H ?
Out: central band

In: Place this variant in its band: chain 5 I2F
Out: upper band

In: Pick a category. Item: chain 5 I2H
Out: central band

In: Which band does chain 5 K7N fall in?
Out: central band

In: Consider chain 5 S1E . To which ratio to parent class does it belong?
Out: central band
